Each recorded value in this set is attributed to patent US7396837B2.

Test system: DU-145
ASSAY_NOTES: SRB colorimetric cell growth inhibition assay, DU-145
Format: cell-based
COND: Homo sapiens; DU-145; GI=growth inhibition; read-out: GI50 DU-145
RESULT_TYPE: GI50 (µM)
Give just the numeric value; µM need not be written.

Ask | Look up GI50 for this compound: COc1cc(-c2c3n(c4c(=O)oc5cc(OC(=O)[C@@H](N)Cc6c[nH]c7ccccc67)c(OC)cc5c24)CCc2cc(OC(=O)[C@@H](N)Cc4c[nH]c5ccccc45)c(OC)cc2-3)ccc1OC(=O)[C@@H](N)Cc1c[nH]c2ccccc12 [Compound 24]
Reply | 0.913

Ask | Look up GI50 for this compound: COc1cc(-c2c3n(c4c(=O)oc5cc(OC(=O)[C@H](Cc6c[nH]c7ccccc67)NC(=O)OC(C)(C)C)c(OC)cc5c24)CCc2cc(OC(=O)[C@H](Cc4c[nH]c5ccccc45)NC(=O)OC(C)(C)C)c(OC)cc2-3)ccc1OC(=O)[C@H](Cc1c[nH]c2ccccc12)NC(=O)OC(C)(C)C [Compound 29]
Reply | 0.198

###

I'd appreciate it if you could supply GI50 values for the items below.
Tested on: LoVo-Dox
ASSAY_NOTES: SRB colorimetric cell growth inhibition assay, LoVo-Dox (MDR)
Type: cell-based
COND: Homo sapiens, LOVO-DOX; GI=growth inhibition; read-out: GI50 LOVO-DOX
Note: unit µM is implicit; provide only the numeric part.

Ask | Sample COc1cc(-c2c3c4cc(OC)c(OC(=O)[C@@H](N)CC(C)C)cc4oc(=O)c3n3ccc4c(OC(=O)[C@@H](N)CC(C)C)c(OC)c(OC)cc4c23)ccc1OC(=O)[C@@H](N)CC(C)C [Compound 45] — what was its GI50?
Reply | 0.778

Ask | Need GI50, item COc1cc(-c2c3c4cc(OC)c(OC(=O)[C@@H]5CCCN5)cc4oc(=O)c3n3ccc4cc(OC(=O)[C@@H]5CCCN5)c(OC)cc4c23)ccc1OC(=O)[C@@H]1CCCN1 [Compound 180]
Reply | 0.104

Ask | Report GI50 for COc1cc2c(cc1OC)-c1c(-c3ccc(OC(=O)CCCC[C@@H]4SC[C@@H]5NC(=O)N[C@@H]54)c(OC)c3)c3c4cc(OC)c(OC(=O)CCCC[C@@H]5SC[C@@H]6NC(=O)N[C@@H]65)cc4oc(=O)c3n1CC2 [Compound 47] please.
Reply | 8.09

Ask | I would be grateful if you could share the reported GI50 for COc1cc(-c2c3c4cc(OC)c(OC(=O)[C@H](C)NC(=O)OC(C)(C)C)cc4oc(=O)c3n3ccc4cc(OC(=O)[C@H](C)NC(=O)OC(C)(C)C)c(OC)cc4c23)ccc1OC(=O)[C@H](C)NC(=O)OC(C)(C)C [Compound 41] .
Reply | 4.2

Ask | Given the molecule COc1cc(-c2c3c4cc(OC)c(OC(C)C)cc4oc(=O)c3n3ccc4c([N+](=O)[O-])cccc4c23)ccc1OC(C)C [Compound 54] , what is its reported GI50?
Reply | 12.5

###

Tested on: IGROV-ET
ASSAY_NOTES: SRB colorimetric cell growth inhibition assay, IGROV-ET (ET-743 resistant)
Type: cell-based
COND: Homo sapiens, IGROV-ET; cell killing (cytotoxic effect); read-out: LC50 IGROV-ET
RESULT_TYPE: CC50 (µM)
Expressed in µM, but write only the number.

Ask | Given the entry COc1cc2ccn3c(c(-c4ccc(OC(=O)[C@@H](N)C(C)C)c(OC)c4)c4c5cc(OC)c(OC(=O)[C@@H](N)C(C)C)cc5oc(=O)c43)c2cc1OC [Compound 19] , report its measured CC50.
Reply | 11.3

Ask | Given COc1cc2c(cc1O)CCn1c-2cc2c3cc(OC)c(O)cc3oc(=O)c21 [Compound 196] , state its recorded CC50.
Reply | 26.4

Ask | For the molecule shown here, COc1cc(-c2c3c4cc(OC)c(OC(=O)CCCCCN)cc4oc(=O)c3n3ccc4c(OC(=O)CCCCCN)c(OC)c(OC)cc4c23)ccc1OC(=O)CCCCCN [Compound 193] , give the reported CC50.
Reply | 9.59

Ask | // lookup CC50 for COc1cc(-c2c3n(c4c(=O)oc5cc(OC(=O)[C@@H](N)Cc6c[nH]c7ccccc67)c(OC)cc5c24)CCc2cc(OC(=O)[C@@H](N)Cc4c[nH]c5ccccc45)c(OC)cc2-3)ccc1OC(=O)[C@@H](N)Cc1c[nH]c2ccccc12 [Compound 24]
Reply | 7.13

Ask | # lookup: CC50 of COc1cc(-c2c3c4cc(OC)c(OC(=O)[C@H](N)C(C)C)cc4oc(=O)c3n3ccc4cc(OC(=O)[C@H](N)C(C)C)c(OC)cc4c23)ccc1OC(=O)[C@H](N)C(C)C [Compound 17]
Reply | 8.78

Ask | Requested field: CC50. Item: COc1cc(-c2c3c4cc(OC)c(OC(C)C)cc4oc(=O)c3n3ccc4c(OC(C)C)c(OC)c(OC)cc4c23)ccc1OC(C)C [Compound 27]
Reply | 15.2

Ask | Need CC50 of COc1cc(-c2c3c4cc(OC)c(OC(=O)[C@@H](N)CC(C)C)cc4oc(=O)c3n3ccc4cc(OC(=O)[C@@H](N)CC(C)C)c(OC)cc4c23)ccc1OC(=O)[C@@H](N)CC(C)C [Compound 181] , thanks.
Reply | 10.5

Ask | What value of CC50 has been recorded for this entry: COc1cc(-c2c3c4cc(OC)c(OC(=O)[C@@H](N)C(C)C)cc4oc(=O)c3n3ccc4cc(OC(=O)[C@@H](N)C(C)C)c(OC)cc4c23)ccc1OC(=O)[C@@H](N)C(C)C [Compound 36]
Reply | 8.78

Ask | Any idea what CC50 was measured for CCCCCCCC(=O)Oc1ccc(-c2c3n(c4c(=O)oc5cc(OC(=O)CCCCCCC)c(OC)cc5c24)CCc2cc(OC(=O)CCCCCCC)c(OC)cc2-3)cc1OC [Compound 28] ?
Reply | 11.4
